Value source: patent US20250163038A1

# Test system: Jurkat (clone E6-1) cells with NFAT luciferase reporter
# test: Jurkat reporter assay (NFAT Luciferase)
# Type: cell-based
# study-conditions: Homo sapiens; Jurkat NFAT luciferase reporter cells, anti-CD3 stimulation, 6 hr; read-out: Jurkat NFAT EC50
pEC50: −log10 of the molar value.
measured-parameter: pEC50

**Query** Requested field: pEC50. Item: Cn1cnnc1-c1cc(F)ccc1-c1cc(-c2nc3cc(C4(N)CC4)cc(F)c3o2)nc(C2CC2)c1 [AGN-3]
**Result** 5.00 to 6.00

**Query** // query: Cn1cnnc1-c1cc(F)ccc1-c1cccc(-c2nc3nc(CN[C@@H]4CCC[C@@H]4O)ccc3o2)c1 [IB-7]
**Result** 5.00 to 6.00

**Query** Note, next up: CO[C@@H]1CCCN(Cc2cc(C(F)(F)F)c3oc(-c4cccc(-c5ccc(F)cc5-c5nncn5C)c4)nc3c2)C1 [JR-2]
**Result** 6.00 to 6.70

**Query** # iterate: CN(Cc1cc(C(F)(F)F)c2oc(-c3cccc(-c4ccc(F)cc4-c4nncn4C)c3)nc2c1)[C@@H]1CCC[C@@H]1O [FW-3]
**Result** > 6.70

**Query** // repeat for Cn1cnnc1-c1cc(F)ccc1-c1cccc(-c2nc3cc(CN[C@@H]4CCC[C@@H]4O)ccc3s2)c1 [ET-8] and report
**Result** 6.00 to 6.70

**Query** Proceed to COC(=O)c1cc(F)c2oc(-c3cc(-c4ccc(C#N)cc4-c4nncn4C)cc(C4CC4)n3)nc2c1 [AHC-1]
**Result** 5.00 to 6.00

**Query** Same question, [2H]C([2H])(NCC1(O)CCC1)c1cc(C(F)(F)F)c2oc(-c3cccc(-c4ccc(F)cc4-c4nncn4C)c3)nc2c1 [HB-1] this time
**Result** > 6.70

**Query** And CO[C@H](C)CNCc1cc(F)c2oc(-c3cc(-c4ccc(F)cc4-c4nncn4C)cc(C4CC4)n3)nc2c1 [AFN-2] ?
**Result** 6.00 to 6.70

**Query** Okay, and COc1cc(CN[C@@H]2CCC[C@@H]2O)cc2nc(-c3cccc(-c4ccc(F)cc4-c4nncn4C)c3)oc12 [DX-2] ?
**Result** > 6.70

###

# measured-target: Recombinant human Cbl-b (aa 36-427) (Homo sapiens)
# Sequence (Q13191 36-427): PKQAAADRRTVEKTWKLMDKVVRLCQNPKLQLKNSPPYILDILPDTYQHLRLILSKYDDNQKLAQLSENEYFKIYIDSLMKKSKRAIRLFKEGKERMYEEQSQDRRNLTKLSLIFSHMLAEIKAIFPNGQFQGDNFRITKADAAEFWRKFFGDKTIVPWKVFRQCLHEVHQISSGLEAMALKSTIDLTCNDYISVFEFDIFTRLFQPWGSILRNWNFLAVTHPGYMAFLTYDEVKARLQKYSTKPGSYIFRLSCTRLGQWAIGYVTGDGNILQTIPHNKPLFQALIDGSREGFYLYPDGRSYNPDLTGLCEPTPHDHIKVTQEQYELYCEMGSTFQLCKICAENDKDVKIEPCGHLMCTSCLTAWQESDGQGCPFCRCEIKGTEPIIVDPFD
# test: Cbl-b Biochemical Assay (TR-FRET)
# study-conditions: read-out: TR-FRET hCbl-b IC50
measured-parameter: IC50

**Query** Recorded IC50 for CO[C@H]1CCCN(Cc2cc(C(F)(F)F)c3oc(-c4cccc(-c5ccc(F)cc5-c5nncn5C)c4)nc3c2)C1 [IU-2] , please?
**Result** < 200 nM

**Query** Could you do the same for C[C@@H](c1cc(C(F)(F)F)c2[nH]c(-c3cccc(C4(Cc5nncn5C)COC4)c3)nc2c1)N1CCC2(CC2)C1 [ACM-1] , please?
**Result** 200 to 1000 nM

**Query** Okay, and Cn1cnnc1-c1cc(F)ccc1-c1cccc(-c2nc3cc(CNC4CCC4)c(F)c(F)c3o2)c1 [JF-1] ?
**Result** < 200 nM

###

Kindly state IC50 for each of the entries shown.
# measured-target: Recombinant human c-Cbl (aa 47-435) (Homo sapiens, UniProt P22681)
# Sequence (P22681 47-435): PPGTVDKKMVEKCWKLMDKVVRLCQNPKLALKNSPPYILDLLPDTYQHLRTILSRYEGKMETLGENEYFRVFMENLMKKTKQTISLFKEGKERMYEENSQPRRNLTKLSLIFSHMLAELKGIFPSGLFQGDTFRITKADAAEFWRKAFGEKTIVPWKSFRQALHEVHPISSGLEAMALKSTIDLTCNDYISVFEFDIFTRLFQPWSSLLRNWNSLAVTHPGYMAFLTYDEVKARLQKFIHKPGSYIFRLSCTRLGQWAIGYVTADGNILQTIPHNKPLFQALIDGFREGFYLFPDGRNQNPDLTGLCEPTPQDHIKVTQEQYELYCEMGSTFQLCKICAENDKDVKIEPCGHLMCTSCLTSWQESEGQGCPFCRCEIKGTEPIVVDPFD
# test: c-Cbl Biochemical Assay (TR-FRET)
# study-conditions: hc-Cbl Biochemical Assay (TR-FRET); read-out: TR-FRET hcCbl IC50

**Query** Any idea what its IC50 is? The molecule is CO[C@@H](C)[C@H](C)NCc1cc(C)c2oc(-c3cc(-c4ccc(F)cc4-c4nncn4C)cc(C4CC4)n3)nc2c1
**Result** < 0.2 µM

**Query** // next record CO[C@@H]1CCCN(Cc2cc(C(F)(F)F)c3oc(-c4cccc(-c5ccc(F)cc5-c5nncn5C)c4)nc3c2)C1
**Result** 0.2 to 1 µM

**Query** Lookup COc1cc(CO)cc2nc(-c3cc(-c4ccc(F)cc4-c4nncn4C)cc(C4CC4)n3)oc12
**Result** 1 to 10 µM

**Query** Then this molecule: COc1cccc2oc(-c3cccc(-c4ccc(F)cc4-c4nncn4C)c3)nc12
**Result** 1 to 10 µM

**Query** Do the same for Cn1cnnc1-c1cc(C#N)ccc1-c1cc(-c2nc3cc(CNCC4CCC4)cc(F)c3o2)nc(C2CC2)c1 please
**Result** < 0.2 µM

**Query** Same lookup for C[C@H](c1cc(C(F)(F)F)c2oc(-c3cccc(C4(Cc5nncn5C)COC4)c3)nc2c1)N1CCC2(CC2)C1 , please.
**Result** 1 to 10 µM

**Query** Same lookup for COc1cc(CNCC2CC2)cc2nc(-c3cccc(-c4ccc(F)cc4-c4nncn4C)c3)oc12 , please.
**Result** < 0.2 µM

###

# measured-target: Recombinant human c-Cbl (aa 47-435) (Homo sapiens, UniProt P22681)
# Sequence (P22681 47-435): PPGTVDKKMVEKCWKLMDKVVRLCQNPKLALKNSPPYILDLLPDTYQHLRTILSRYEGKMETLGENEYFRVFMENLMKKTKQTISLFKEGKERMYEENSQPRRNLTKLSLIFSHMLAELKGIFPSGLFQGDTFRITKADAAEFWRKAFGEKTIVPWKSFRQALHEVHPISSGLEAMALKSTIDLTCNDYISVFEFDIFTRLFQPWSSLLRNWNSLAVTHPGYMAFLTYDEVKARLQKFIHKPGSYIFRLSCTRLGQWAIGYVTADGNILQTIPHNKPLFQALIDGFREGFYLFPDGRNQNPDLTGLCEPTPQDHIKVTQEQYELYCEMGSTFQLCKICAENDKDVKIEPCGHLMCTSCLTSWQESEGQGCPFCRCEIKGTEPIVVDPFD
# test: c-Cbl Biochemical Assay (TR-FRET)
# study-conditions: hc-Cbl Biochemical Assay (TR-FRET); read-out: TR-FRET hcCbl IC50
measured-parameter: IC50

**Query** Entry CC[C@H](O)CNCc1cc(C(F)(F)F)c2oc(-c3cccc(-c4ccc(F)cc4-c4nncn4C)c3)nc2c1 [DG-2] : reported IC50 = ?
**Result** < 200 nM

**Query** Would you mind doing CCOc1cc(-c2ccc(F)cc2-c2nncn2C)cc(-c2nc3cc(CN[C@@H]4CCC[C@@H]4O)cc(OC)c3o2)n1 [ADM-14] as well?
**Result** < 200 nM

**Query** Please give the result for CC(=O)c1cc(C(F)(F)F)c2oc(-c3cccc(-c4ccc(F)cc4-c4nncn4C)c3)nc2c1 [DK-1] too.
**Result** 1000 to 10000 nM

**Query** Same thing, different molecule: Cn1cnnc1-c1cc(F)ccc1-c1cccc(-c2nc3cc(CN[C@H]4CC[C@@H]4O)cc(C(F)(F)F)c3o2)c1 (single isomer, unassigned) [ADH-1]
**Result** < 200 nM

**Query** Could you do the same for Cn1cnnc1-c1cc(F)ccc1-c1cccc(-c2nc3ccc(CN[C@@H]4CCC[C@@H]4O)cn3n2)c1 [GK-5, Formic Acid] , please?
**Result** 200 to 1000 nM

**Query** Repeat with Cn1cnnc1-c1cc(C#N)ccc1-c1cc(-c2nc3cc(CN4C[C@@H]5C[C@H]4CO5)cc(F)c3o2)nc(C2CC2)c1 [AGH-4]
**Result** 200 to 1000 nM

**Query** Please answer likewise for Cn1cnnc1-c1cc(F)ccc1-c1cccc(-c2nc3cc(CN4CO[C@H]5CCC[C@H]54)cc(C(F)(F)F)c3o2)c1 [EH-1]
**Result** < 200 nM

**Query** What would you report for CO[C@H]1CCC[C@H]1N(C)Cc1cc(C(F)(F)F)c2oc(-c3cccc(-c4ccc(F)cc4-c4nncn4C)c3)nc2c1 [CN-5] ?
**Result** 200 to 1000 nM

**Query** // next record C[C@H]1CCCN(Cc2cc(C(F)(F)F)c3oc(-c4cc(-c5ccc(F)cc5-c5nncn5C)cc(C5CC5)n4)nc3c2)C1 [ADO-1]
**Result** < 200 nM
